System: RXF 393 renal
EXPERIMENT: NCI tumour cell line growth inhibition, 48 h
MEASUREMENT_KIND: TGI

* COc1cc2c(cc1OC)-c1c3c(cc4c1[C@@H](C2)N(C)CC4)OCO3 | 19.2 µM

Batch request: TGI per item, same order as input.
1. COc1cc(/C=C2\CCC(C)C3=C2NC(=S)NC3c2cc(OC)c(OC)c(OC)c2)cc(OC)c1OC (stereo not given)
2. COC(=O)[C@@]12CCCC(=O)[C@@H]1[C@H]1CCCC[C@H]12
3. NC(=O)c1ccc(C2C3=C(CCCC3=O)OC3=C2C(=O)c2ccccc2C3=O)cc1 (stereo not given)
4. S=C(S)NCC1CCC(CNC(=S)S)CC1 (stereo not given)

stdout:
1. > 100 µM
2. > 100 µM
3. 2.87 µM
4. 40.6 µM

###

Tested on: A549 NSCLC
EXPERIMENT: NCI tumour cell line growth inhibition, 48 h
MEASUREMENT_KIND: TGI

• Cc1ccc(NC(=O)Cn2c(Br)nc3c2c(=O)n(C)c(=O)n3C)cc1 = 24.5 µM
• CCC(c1cccc(O)c1)C(CC)c1cccc(O)c1 (centres undefined) = 24.2 µM
• COc1cc(S(C)(=O)=O)ccc1Nc1nc2ccc(-c3ccc(NC(=O)[C@H](C)c4ccc(F)cc4)cc3)cn2n1 = > 100 µM

Each compound below has a recorded value; state its TGI.
1. O=C(NCc1ccc(Cl)cc1)c1cc2sccc2nc1C(F)(F)F
2. O=c1[nH]c(N/N=C\C(O)C(O)C(O)CO)nc2ccccc12 (centres undefined)
3. COc1cc(Cn2c(-c3nonc3N)nc3ccccc32)ccc1C

stdout:
> 100 µM
> 100 µM
> 100 µM

Fill in TGI for each of the 6 compounds listed.
1. COc1cc(/C=N/Nc2nnc3c4ccccc4c4ncccc4c3n2)cc(OC)c1OC
2. COc1c2cc(C(C)(C)C)cc1Cc1cccc(c1O)Cc1cc(C(C)(C)C)cc(c1OC)Cc1cccc(c1O)Cc1cc(C(C)(C)C)cc(c1OC)Cc1cccc(c1O)C2
3. Cc1cc(-c2nnc3n2CCCCC3)c(C)n1-c1ccc(Cl)c(Cl)c1
4. N.N.N.N.N.N.O=N[O-].[Br-].[Co+3].[Co+3].[OH3+].[OH3+]
5. C[C-](O)O.O/C(=C\[C-](O)c1ccccc1)c1ccccc1.O/C(=C\[C-](O)c1ccccc1)c1ccccc1.[Nd+3] (centres undefined)
6. COC(=O)[C@@H]1C[C@@]2(C3C=CN(C(=O)C(F)(F)F)C=C3)c3ccccc3N(C(=O)C(F)(F)F)[C@H]2N1C(=O)OC

stdout:
1: > 10 µM; 2: > 100 µM; 3: 65.8 µM; 4: > 100 µM; 5: 48.9 µM; 6: > 100 µM

###

Please respond with reported TGI for every item in the list.
System: NCI/ADR-RES ovarian
EXPERIMENT: NCI tumour cell line growth inhibition, 48 h

Worked cases, answers included:
- N#C[C@@H]1C(n2ccc(N)nc2=O)O[C@H](CO)[C@H]1O (stereo not given in full): > 100 µM
- Cn1c(=O)c2c(ncn2CN2CCN(Cn3cnc4c3c(=O)n(C)c(=O)n4C)CC2)n(C)c1=O: > 100 µM
- Cc1cc(C)n(CN(Cn2nc(C)cc2C)C2CCCCC2)n1: 42.5 µM

For each of the items listed, what is its TGI?
1. CN(C)CCCOCCn1c2c(c3ccccc31)CCCC2
2. C#CCn1c(=O)c(C#N)c(O)c2cc3ccccc3nc21
3. CC(=O)OCC=C(CCl)CCC(Br)C(C)(C)Br (mixture of isomers)
4. CCOC(=O)C(CS)NC(=O)CCCCCCCC(=O)NC(CS)C(=O)OCC (stereo not given)
5. COc1cc(S(=O)(=O)Nc2ccc(-c3csc(N4C(=O)CSC4c4ccccc4)n3)cc2)ccc1Cl (stereo not given)
6. COc1ccccc1Nc1nc(NNC(=O)Cc2ccccc2)nc(NNC(=O)c2ccncc2)n1
7. COc1ccc(C(=O)N2c3ccccc3Sc3ccccc32)c(C(F)(F)F)c1
8. O=Cc1ccc(-c2cccs2)s1

stdout:
1. 35.2 µM
2. > 100 µM
3. > 10 µM
4. > 100 µM
5. > 100 µM
6. > 10 µM
7. > 100 µM
8. > 100 µM

I would be grateful if you could provide TGI for each of the following entries.
1. CC(=O)N1CCN(C23OC4(N5CCN(C(C)=O)CC5)C5C6CC(C7C6C4C72)C53)CC1 (stereo not given)
2. S=C(S)NCC1CCC(CNC(=S)S)CC1 (stereo not given)
3. C/C(=N\NC(N)=S)c1nc2ccc(Cl)cc2[nH]1

stdout:
> 100 µM
> 100 µM
> 50 µM

Below is a list of compounds. For each, state its recorded TGI.
1. CC(C)Oc1cc(O)c2c(c1)OCC=C2CCC(=O)O
2. CSc1c(C#N)c2n(c3ccccc13)c1ccccc1[n+]2C
3. O=S1(=O)c2ccccc2NC(=S)CC1c1ccccc1 (stereo not given)
4. CC(C)N(C)C(=O)C12C3C4C1C1C2C3C41C#N (stereo not given)

stdout:
1. > 100 µM
2. 68.4 µM
3. > 100 µM
4. > 100 µM

I'm hoping you can list TGI for every compound here, please.
1. O=c1[nH]c(N/N=C\C(O)C(O)C(O)CO)nc2ccccc12 (stereo not given)
2. COC(=O)CCCCCN=Cc1c(O)c(O)c(C(C)C)c2cc(C)c(-c3c(C)cc4c(C(C)C)c(O)c(O)c(C=NCCCCCC(=O)OC)c4c3O)c(O)c12
3. Clc1ccc(N=c2oc3ccccc3cc2-c2nc3ccccc3[nH]2)c(Cl)c1
4. CCN1CSC(=S)N(CC)C1

stdout:
> 100 µM
> 32.5 µM
> 100 µM
> 100 µM

Batch: TGI for all items listed.
1. FCc1ncc(-c2ccc(C(F)(F)F)cc2)c(NC2CCCCCC2)n1
2. CN(C)C(=O)O[C@@H]1CN[C@@H](C#Cc2cc3ncnc(Nc4ccc(OCc5cccc(F)c5)c(Cl)c4)c3s2)C1
3. CN(Cc1cnc2nc(N)nc(N)c2n1)c1ccc(C(=O)NC(CCC(=O)NCC(P(=O)(O)O)P(=O)(O)O)C(=O)O)cc1 (stereo not given)

stdout:
1. > 10 µM
2. > 25 µM
3. > 100 µM

Hi! Can you tell me TGI for each of these compounds?
1. NC(=O)c1ccc(C2C3=C(CCCC3=O)OC3=C2C(=O)c2ccccc2C3=O)cc1 (stereo not given)
2. O=C(O)CSc1ncccc1[N+](=O)[O-]
3. COC(=O)CCC1=C(C)/C(=C/c2[nH]c(-c3ccc[nH]3)cc2OC)N=C1C
4. O=C1NC2(CN3CCC2CC3)C(=O)N1CN(Cc1ccccc1)c1ccccc1 (stereo not given)

stdout:
1. 22.5 µM
2. > 100 µM
3. 12.3 µM
4. > 100 µM

Each compound below has a recorded value; state its TGI.
1. C=C1C(=O)O[C@H]2C[C@@]3(C)[C@H](O)CCC(=C)[C@@H]3[C@@H](OC(C)=O)[C@H]12
2. COc1cc(/C=C2/N=C(c3ccccc3)N(C3=NNC4(C(=O)N3)c3ccccc3-c3ccccc34)NC2=O)ccc1O
3. O=c1oc2ccc(Cl)cc2cc1-c1cn2cc(Cl)ccc2n1
4. COc1ccc(/C=C2\N=C(c3ccccc3)N(C3Nc4cc5c(cc4S3)NC(N3C(=O)/C(=C/c4ccc(OC)cc4)N=C3c3ccccc3)S5)C2=O)cc1 (stereo not given)

stdout:
["76.8 µM", "> 150 µg/mL", "> 85.9 µM", "48 µM"]

Return reported TGI values for all items listed beneath this line.
1. COC1CC(OC(=O)c2ccccc2)C(OC(=O)c2ccccc2)C(C)O1 (stereo not given)
2. Cc1cc(=O)oc2cc(O)c(CN(C)CC(=O)O)cc12

stdout:
1. > 100 µM
2. > 100 µM
